- EXPERIMENTAL TARGET: human IGF1R (Homo sapiens, UniProt P08069)
- Sequence (P08069 31-1367): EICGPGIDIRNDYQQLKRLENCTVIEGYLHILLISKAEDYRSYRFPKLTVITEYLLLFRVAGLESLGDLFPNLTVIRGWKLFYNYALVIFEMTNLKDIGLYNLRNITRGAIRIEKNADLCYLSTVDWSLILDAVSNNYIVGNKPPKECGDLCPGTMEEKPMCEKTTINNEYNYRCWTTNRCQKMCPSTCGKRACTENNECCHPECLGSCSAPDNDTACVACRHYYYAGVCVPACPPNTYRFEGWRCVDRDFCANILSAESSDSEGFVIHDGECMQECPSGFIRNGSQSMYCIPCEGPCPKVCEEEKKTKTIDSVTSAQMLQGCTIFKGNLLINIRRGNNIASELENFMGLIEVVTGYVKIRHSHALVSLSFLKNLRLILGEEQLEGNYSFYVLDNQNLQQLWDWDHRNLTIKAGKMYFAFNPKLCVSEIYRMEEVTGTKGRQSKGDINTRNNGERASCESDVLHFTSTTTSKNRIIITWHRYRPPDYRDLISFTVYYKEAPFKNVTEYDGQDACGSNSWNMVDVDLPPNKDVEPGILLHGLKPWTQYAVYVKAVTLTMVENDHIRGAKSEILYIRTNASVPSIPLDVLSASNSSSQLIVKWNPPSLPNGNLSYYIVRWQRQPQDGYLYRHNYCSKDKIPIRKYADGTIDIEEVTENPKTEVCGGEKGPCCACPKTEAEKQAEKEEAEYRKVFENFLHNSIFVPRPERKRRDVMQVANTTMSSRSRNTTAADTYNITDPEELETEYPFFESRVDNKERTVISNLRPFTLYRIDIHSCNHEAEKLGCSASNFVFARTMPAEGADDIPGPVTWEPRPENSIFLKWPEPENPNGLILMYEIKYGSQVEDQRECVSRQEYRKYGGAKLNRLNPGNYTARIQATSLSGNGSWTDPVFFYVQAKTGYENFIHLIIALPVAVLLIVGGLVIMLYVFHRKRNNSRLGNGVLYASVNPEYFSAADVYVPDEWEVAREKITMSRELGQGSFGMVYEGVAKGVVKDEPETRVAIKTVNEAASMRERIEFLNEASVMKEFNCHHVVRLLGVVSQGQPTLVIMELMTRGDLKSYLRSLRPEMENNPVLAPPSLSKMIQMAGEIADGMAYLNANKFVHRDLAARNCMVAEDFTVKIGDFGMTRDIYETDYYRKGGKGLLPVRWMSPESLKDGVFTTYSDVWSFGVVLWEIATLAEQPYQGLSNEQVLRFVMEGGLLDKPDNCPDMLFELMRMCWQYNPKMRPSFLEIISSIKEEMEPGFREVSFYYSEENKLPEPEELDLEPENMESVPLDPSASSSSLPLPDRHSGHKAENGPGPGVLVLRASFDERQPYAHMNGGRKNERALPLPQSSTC
- EXPERIMENT: Inhibition of insulin-like growth factor-1 receptor phosphorylation in R+ cells
- EXPERIMENTAL CONTEXT: 30 nM IGF1, read-out: IGF cell class
Where a name gives a salt, the structure may show the parent alone.
Measured IC50 values are reported for all entries that follow.

Look over these answered cases.
* CC(C)Oc1cc(Nc2ccnc(NCc3cc(C4CC4)no3)n2)n[nH]1 [Example 67] | 1 to 10 µM
* Cc1cc(CNc2nccc(Nc3cc(CCc4ccc5c(c4)OCO5)[nH]n3)n2)on1 [Example 54] | 1 to 10 µM
* Cc1cc(CNc2nccc(Nc3cc(C4CC4)[nH]n3)n2)on1 [Example 9] | 1 to 10 µM

[Q] Entry c1ccc(COc2cc(Nc3ccnc(NCc4cc(C5CC5)no4)n3)n[nH]2)cc1 [Example 103] : reported IC50 = ?
[A] 1 to 10 µM

[Q] Query Cc1cccc(CCc2cc(Nc3ccnc(NCc4cc(C)no4)n3)n[nH]2)c1 [Example 52, hydrochloride] next
[A] > 10 µM

[Q] Query COc1cc(Nc2cc(OC(C)C)n[nH]2)nc(NCc2cc(C)no2)n1 [Example 70] next
[A] > 10 µM

[Q] Query Cc1cc(CNc2nccc(Nc3cc(OC(C)C)[nH]n3)n2)on1 [Example 66] next
[A] > 10 µM

[Q] Query Cc1cc(Nc2ccnc(NCc3cc(C(N)=O)no3)n2)[nH]n1 [Example 4] next
[A] > 10 µM

[Q] Query COc1cccc(CCc2cc(Nc3ccnc(NCc4cc(C(N)=O)no4)n3)[nH]n2)c1 [Example 29] next
[A] > 10 µM

----------
- EXPERIMENTAL TARGET: FGFR1 IIIc (Homo sapiens)
- Construct: host or cells: Cos-1
- EXPERIMENT: Cell based inhibition of transiently expressed FGFR1 IIIc phosphorylation via use of ECHO technology (Cos-1 cells)
- EXPERIMENTAL CONTEXT: Cos-1 cells, phospho-FGFR1, ECHO dosing; upper bound of bin; read-out: IC50
pIC50: −log10 of the molar value.
ASSAY READOUT: pIC50

Look over these answered cases.
- COc1cc(CCc2cc(Nc3ccnc(NCc4cc(C)no4)n3)n[nH]2)cc(OC)n1: > 6.70
- c1cc(Nc2cc(C3CCCC3)[nH]n2)nc(NCc2cc(C3CC3)no2)n1: > 6.70
- CNC(=O)c1cc(CNc2nccc(Nc3cc(CCc4cccc(OC)c4)n[nH]3)n2)on1: > 5.00

[Q] Entry CNC(=O)c1cccc(CCc2cc(Nc3ccnc(NCc4cc(C)no4)n3)n[nH]2)c1 : reported pIC50 = ?
[A] > 6.00

[Q] Query CNC(=O)c1cc(CNc2nccc(Nc3cc(OC(C)C)n[nH]3)n2)on1 next
[A] > 5.00

[Q] Query Oc1cccc(CCc2cc(Nc3ccnc(NCc4cc(C5CC5)no4)n3)n[nH]2)c1 next
[A] > 6.70

[Q] Query Cc1cc(CNc2nccc(Nc3cc(C4CCCC4)[nH]n3)n2)on1 next
[A] > 6.00

[Q] Query COc1ccc(CCc2cc(Nc3ccnc(NCc4cc(C(N)=O)no4)n3)[nH]n2)cc1 next
[A] > 5.00

----------
- EXPERIMENTAL TARGET: human IGF1R (Homo sapiens, UniProt P08069)
- EXPERIMENT: Inhibition of insulin-like growth factor-1 receptor phosphorylation in R+ cells
- EXPERIMENTAL CONTEXT: 30 nM IGF1, read-out: IGF cell class
pIC50: −log10 of the molar value. Where a name gives a salt, the structure may show the parent alone.
Measured pIC50 values are reported for all entries that follow.

[Q] Entry COc1ccc(CCc2cc(Nc3ccnc(NCc4cc(C)no4)n3)n[nH]2)cc1OC [Example 46, hydrochloride] : reported pIC50 = ?
[A] 5.00 to 6.00

[Q] Query COc1cc(COc2cc(Nc3ccnc(NCc4cc(C)no4)n3)n[nH]2)ccc1F [Example 100, hydrochloride] next
[A] 5.00 to 6.00

[Q] Query Cc1cc(CNc2nccc(Nc3cc(CCc4cccc(Br)c4)[nH]n3)n2)on1 [Example 53, hydrochloride] next
[A] < 5.00

[Q] Query Cc1cc(CNc2nccc(Nc3cc(CCC4CCOC4)[nH]n3)n2)on1 (stereo not shown) [Example 109] next
[A] < 5.00

----------
Measured IC50 values are reported for all entries that follow.
- EXPERIMENTAL TARGET: human IGF1R (Homo sapiens, UniProt P08069)
- Construct: expressed in transfected cells; host or cells: R+ cells (R- mouse fibroblasts transfected with human IGF1R)
- EXPERIMENT: Inhibition of insulin-like growth factor-1 receptor phosphorylation in R+ cells
- Assay type: cell-based
- EXPERIMENTAL CONTEXT: 30 nM IGF1, read-out: IGF cell class
Counter-ions that a name gives are not always drawn.

Look over these answered cases.
- Cc1cc(CNc2nccc(Nc3cc(CCc4cccnc4)[nH]n3)n2)on1 [Example 115]: > 10 µM
- Cc1cc(CNc2nccc(Nc3cc(CCc4ccccc4OCc4ccccc4)[nH]n3)n2)on1 [Example 39, hydrochloride]: > 10 µM
- COc1cc(CCc2cc(Nc3ccnc(NCc4cc(C)no4)n3)n[nH]2)c(F)cn1 [Example 62, hydrochloride]: > 10 µM
- COc1cccc(CCc2cc(Nc3ccnc(NCc4cc(-c5ncccn5)no4)n3)[nH]n2)c1 [Example 33]: > 10 µM
- COc1cccc(CCc2cc(Nc3ccnc(NCc4cc(C)no4)n3)n[nH]2)c1 [Example 27]: > 10 µM
- COCC(C)Oc1cc(Nc2ccnc(NCc3cc(C)no3)n2)n[nH]1 (stereo not shown) [Example 75]: > 10 µM

Next compound, please.
[Q] Entry Oc1cccc(CCc2cc(Nc3ccnc(NCc4cc(C5CC5)no4)n3)n[nH]2)c1 [Example 56] : reported IC50 = ?
[A] 1 to 10 µM

----------
Measured IC50 values are reported for all entries that follow.
- EXPERIMENTAL TARGET: FGFR1 IIIc (Homo sapiens, UniProt P11362)
- Construct: host or cells: Cos-1
- Sequence (P11362 22-822): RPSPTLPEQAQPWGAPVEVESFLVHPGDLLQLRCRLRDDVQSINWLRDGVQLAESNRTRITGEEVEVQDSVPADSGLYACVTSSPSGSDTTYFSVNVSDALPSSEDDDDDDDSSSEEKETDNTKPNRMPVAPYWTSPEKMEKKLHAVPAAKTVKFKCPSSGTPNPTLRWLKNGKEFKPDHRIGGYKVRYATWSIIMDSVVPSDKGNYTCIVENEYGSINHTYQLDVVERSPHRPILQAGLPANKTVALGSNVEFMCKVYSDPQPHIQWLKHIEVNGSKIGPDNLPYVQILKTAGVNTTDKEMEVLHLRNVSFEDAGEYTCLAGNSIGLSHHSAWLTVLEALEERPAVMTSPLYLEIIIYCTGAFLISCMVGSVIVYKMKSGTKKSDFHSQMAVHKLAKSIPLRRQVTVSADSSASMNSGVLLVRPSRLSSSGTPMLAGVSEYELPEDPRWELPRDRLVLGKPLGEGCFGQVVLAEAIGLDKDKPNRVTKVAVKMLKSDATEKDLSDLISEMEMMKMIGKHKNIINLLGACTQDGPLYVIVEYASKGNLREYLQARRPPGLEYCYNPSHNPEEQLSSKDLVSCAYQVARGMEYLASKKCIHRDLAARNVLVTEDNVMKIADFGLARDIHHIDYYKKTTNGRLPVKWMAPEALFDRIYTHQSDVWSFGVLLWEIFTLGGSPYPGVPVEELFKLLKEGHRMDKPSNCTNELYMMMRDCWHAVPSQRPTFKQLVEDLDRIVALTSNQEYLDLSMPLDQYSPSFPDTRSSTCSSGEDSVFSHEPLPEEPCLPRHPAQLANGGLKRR
- EXPERIMENT: Cell based inhibition of transiently expressed FGFR1 IIIc phosphorylation (Cos-1 cells)
- EXPERIMENTAL CONTEXT: Cos-1 cells, phospho-FGFR1; upper bound of bin; read-out: IC50
Counter-ions that a name gives are not always drawn.

- Cc1cc(CNc2nccc(Nc3cc(CCc4ccncc4)[nH]n3)n2)on1: < 30 µM

[Q] Entry COc1cc(COc2cc(Nc3ccnc(NCc4cc(C)no4)n3)n[nH]2)cc(OC)c1 : reported IC50 = ?
[A] < 0.2 µM

[Q] Query COc1cc(CCc2cc(Nc3ccnc(NCc4cc(C)no4)n3)n[nH]2)c(F)cn1 [Example 62, hydrochloride] next
[A] < 1 µM

[Q] Query CNC(=O)c1cccc(COc2cc(Nc3ccnc(NCc4cc(C)no4)n3)n[nH]2)c1 next
[A] < 1 µM

----------
- EXPERIMENTAL TARGET: UniProt P05177
- Sequence (P05177 1-516): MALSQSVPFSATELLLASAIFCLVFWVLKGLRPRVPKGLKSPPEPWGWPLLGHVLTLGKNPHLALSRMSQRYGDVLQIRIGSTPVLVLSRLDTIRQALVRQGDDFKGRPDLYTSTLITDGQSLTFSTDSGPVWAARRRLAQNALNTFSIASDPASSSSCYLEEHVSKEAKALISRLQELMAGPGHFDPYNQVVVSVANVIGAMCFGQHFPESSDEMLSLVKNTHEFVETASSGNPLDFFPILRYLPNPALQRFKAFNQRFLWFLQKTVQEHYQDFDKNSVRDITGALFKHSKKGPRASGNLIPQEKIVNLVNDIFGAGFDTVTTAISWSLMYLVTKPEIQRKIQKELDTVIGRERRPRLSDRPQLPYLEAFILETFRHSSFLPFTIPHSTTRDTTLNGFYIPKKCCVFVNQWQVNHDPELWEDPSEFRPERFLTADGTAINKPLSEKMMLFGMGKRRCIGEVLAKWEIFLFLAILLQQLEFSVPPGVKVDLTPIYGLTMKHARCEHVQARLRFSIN
pIC50: −log10 of the molar value.
ASSAY READOUT: pIC50

(a) Cc1cc(Nc2nc(NCc3cc(C)no3)ncc2Br)[nH]n1
(b) Cc1cc(CNc2ncc(Cl)c(Nc3cc(C)[nH]n3)n2)on1
[Q] Field: lower pIC50 | Options: a / b Mark your selection by writing its label.
[A] a

----------
- EXPERIMENTAL TARGET: human IGF1R (Homo sapiens, UniProt P08069)
- EXPERIMENT: Inhibition of insulin-like growth factor-1 receptor phosphorylation in R+ cells
- EXPERIMENTAL CONTEXT: 30 nM IGF1, read-out: IGF cell class
Counter-ions that a name gives are not always drawn.
Measured IC50 values are reported for all entries that follow.

* Cc1cc(CNc2nccc(Nc3cc(C4CCOCC4)[nH]n3)n2)on1 [Example 114, hydrochloride] | > 10 µM
* CC(C)Oc1cc(Nc2ccnc(NCc3cc(C4CCC4)no3)n2)n[nH]1 [Example 102] | 0.1 to 1 µM
* Cc1cc(CNc2nccc(Nc3cc(C)[nH]n3)n2)on1 [Example 1] | > 10 µM
* COc1ccc(CCc2cc(Nc3ccnc(NCc4cc(C)no4)n3)n[nH]2)c(C)c1 [Example 47] | 1 to 10 µM
* Cc1cc(CNc2nccc(Nc3cc(CCc4nc(-c5ccccc5)no4)[nH]n3)n2)on1 [Example 106] | 1 to 10 µM

[Q] Report IC50 for COCCOc1cccc(CCc2cc(Nc3ccnc(NCc4cc(C)no4)n3)n[nH]2)c1 [Example 40] tested on human IGF1R (Homo sapiens, UniProt P08069).
[A] 1 to 10 µM

[Q] Query Cc1cc(CNc2nccc(Nc3cc(CCc4cccc(OCc5ccccc5)c4)n[nH]3)n2)on1 [Example 38] next
[A] 0.1 to 1 µM

[Q] Query NC(=O)c1cc(CNc2nccc(Nc3cc(CCc4ccccc4)n[nH]3)n2)on1 [Example 50] next
[A] > 10 µM

[Q] Query CNC(=O)c1cccc(COc2cc(Nc3ccnc(NCc4cc(C)no4)n3)n[nH]2)c1 [Example 91] next
[A] > 10 µM

[Q] Query Cc1cc(CNc2nccc(Nc3cc(CCc4ccoc4)[nH]n3)n2)on1 [Example 110] next
[A] 1 to 10 µM

[Q] Query Cc1cc(CNc2nccc(Nc3cc(OCc4ccc(C(F)(F)F)cc4)[nH]n3)n2)on1 [Example 96, hydrochloride] next
[A] > 10 µM

[Q] Query Cc1cc(CNc2nccc(Nc3cc(CCc4ccncc4)[nH]n3)n2)on1 [Example 116] next
[A] > 10 µM

[Q] Query NC(=O)c1cc(CNc2nccc(Nc3cc(C4CC4)n[nH]3)n2)on1 [Example 11] next
[A] 1 to 10 µM

[Q] Query COC(=O)c1cccc(COc2cc(Nc3ccnc(NCc4cc(C)no4)n3)n[nH]2)c1 [Example 97, hydrochloride] next
[A] 1 to 10 µM

[Q] Query Cc1cc(Nc2ccnc(NCc3cc(C4CC4)no3)n2)n[nH]1 [Example 3] next
[A] 1 to 10 µM

[Q] Query COc1cc(CCc2cc(Nc3ccnc(NCc4cc(C)no4)n3)n[nH]2)cc(OC)c1 [Example 42] next
[A] 1 to 10 µM

[Q] Query c1coc(-c2cc(Nc3ccnc(NCc4cc(C5CC5)no4)n3)n[nH]2)c1 [Example 120] next
[A] 1 to 10 µM
